- Test system: MCF7
- Assay Name: NCI tumour cell line growth inhibition, 48 h
The source made the active and inactive calls. Rule as the data show it: active = GI50 up to about 1.1 µM and inactive = higher.
In this exercise, the only acceptable responses are yes = active, no = inactive

>  <Molecule>
COC1C(C)OC(OC2CC(C)(O)Cc3cc4c(c(O)c32)C(=O)c2c(O)cc3c(c2C4=O)OC2OC3(C)C(O)C(N(C)C)C2O)C(OC)C1(C)OC (stereo unspecified)

>  <Assigned Class>
yes

$$$$
>  <Molecule>
CC(=O)C1=C(C)N(c2ccc(C)cc2)C2(O)C=CC(O)=C3C(=O)c4ccccc4C(=O)C312 (stereo unspecified)

>  <Assigned Class>
no

$$$$
>  <Molecule>
O=C1CC(Cl)c2c(Cl)sc(Cl)c21 (stereo unspecified)

>  <Assigned Class>
yes

$$$$
>  <Molecule>
O=C1CCCC1C(=O)Nc1ccc2ccccc2c1 (stereo unspecified)

>  <Assigned Class>
no

$$$$
>  <Molecule>
COc1cccc(-c2cc(O)c3cc(N4CCOCC4)ccc3n2)c1

>  <Assigned Class>
yes

$$$$
>  <Molecule>
c1ccc2sc(C3(N4CCCCCC4)CCCCC3)cc2c1

>  <Assigned Class>
no

$$$$
>  <Molecule>
Cc1ccccc1C1=C/C(=C(\SS/C(C(=O)c2ccc(OCC(=O)O)c(Cl)c2Cl)=C2\C=C(c3ccccc3C)SS2)C(=O)c2ccc(OCC(=O)O)c(Cl)c2Cl)SS1

>  <Assigned Class>
no

$$$$
>  <Molecule>
N#Cc1nc(C2SCCCS2)oc1N

>  <Assigned Class>
no

$$$$

Hello, I am checking results. What call was entered for O=C(O)c1c2c(cc3c1CC1(Cc4ccccc4C1=O)C3)CCC2 (stereo unspecified) ?
no

Hello, I am checking results. What call was entered for COc1ccc(C(CC(=O)c2cccs2)C(=O)c2ccc3c(c2)OCO3)cc1 (stereo unspecified) ?
no

Hello, I am checking results. What call was entered for COc1cc[n+](C)cc1 ?
no

* * *

- Tested on: DLD-1
- Assay Name: NCI tumour cell line growth inhibition, 48 h
Activity calls are given as the source filed them. No stated cut-off is given here; in the data, active = GI50 up to about 1.1 µM and inactive = higher.
Result Type: GI50

Some compounds with known GI50 results, for comparison:
>  <Compound>
CCC[S+]([O-])c1nc(COC(=O)NC)c(COC(=O)NC)n1C (centres undefined)

>  <GI50>
> 100 µM (inactive)

$$$$
>  <Compound>
COC(=O)C12CC3CC(C1)CC(C(=O)OC)(C3)C2

>  <GI50>
> 100 µM (inactive)

$$$$
>  <Compound>
CC1(O)CCC2(C#N)CCC1C2O (centres undefined)

>  <GI50>
34 µM (inactive)

$$$$
>  <Compound>
CC[C@H](C)C(=O)O[C@H]1C[C@@H](C)C=C2C=C[C@H](C)[C@H](CC[C@@H]3C[C@@H](O)CC(=O)O3)[C@H]21 [LOVASTATIN]

>  <GI50>
> 30 µM (inactive)

$$$$
>  <Compound>
Nc1c(C(=O)NC23CC4CC(CC(C4)C2)C3)[n+]([O-])c2ccccc2[n+]1[O-]

>  <GI50>
> 100 µM (inactive)

$$$$

// batch mode: one GI50 value per listed entry
1. CC(=O)OC1CC2C(C)(C)OC(=O)CC(OC(C)=O)[C@]2(C)C2CCC3(C)C(=CCC3c3ccoc3)[C@]12C (some centres undefined)
2. Cc1ccc(Oc2ccc([N+](=O)[O-])cc2[N+](=O)[O-])c(C)c1

1. 13 µM (inactive)
2. 56.4 µM (inactive)

// batch mode: one GI50 value per listed entry
1. NN=C1/C(=C\c2ccccc2)CCC/C1=C/c1ccccc1
2. COc1ccc(/C=C2\CCCC(C(NO)c3ccc(OC)cc3)C2=NO)cc1 (centres undefined)
3. CCOC(=O)CCC1(C(=O)OCC)CCCC1=O (centres undefined)
4. COC(=O)/C=C1/CCC2[C@@H](C(=O)CC3[C@]2(C)CCC[C@@]3(C)C(=O)OC)C1C (some centres undefined)
5. CC1CC(C)C2OC2(C)C[C@H](C)C(=O)NC(C)C(=O)N(C)[C@H](Cc2c(Br)[nH]c3ccccc23)C(=O)N[C@@H](c2ccc(O)cc2)CC(=O)O1 (some centres undefined)
6. O=C1[C@@H]2C3SC(c4ccccc43)[C@@H]2C(=O)N1c1ccccc1

1. 31.8 µM (inactive)
2. 46.7 µM (inactive)
3. > 100 µM (inactive)
4. 12.7 µM (inactive)
5. 3.37 µM (inactive)
6. > 100 µM (inactive)

// batch mode: one GI50 value per listed entry
1. CC(=O)OC1COC(n2c(=S)n(-c3ccccc3)c(=O)c3ccccc32)C(OC(C)=O)C1OC(C)=O (centres undefined)
2. CCN(CC)c1ccc2c(c1)N=C1N=CC=CN1C2(c1ccc(N(C)C)cc1)c1ccc(N(C)C)cc1
3. Cc1ccc(C)c(NC(=O)CC2SC(Nc3ccccc3Cl)=NC2=O)c1 (centres undefined)
4. S=P(N1CC1)(N1CC1)N1CC1 [THIOTEPA]
5. Cc1ccccc1C(=O)Oc1ccc(Oc2ccccc2)cc1

1: 56.5 µM (inactive); 2: 4.53 µM (inactive); 3: 77.4 µM (inactive); 4: 195 µM (inactive); 5: > 100 µM (inactive)

// batch mode: one GI50 value per listed entry
1. C[C@H]1COC2(c3ccccc3)CCC(=O)N12 (some centres undefined)
2. COC(=O)C(=O)C(C(=O)C(=O)Nc1ccccc1C(N)=O)c1nc2ccc([N+](=O)[O-])cc2nc1O (centres undefined)

["> 100 µM (inactive)", "> 100 µM (inactive)"]

// batch mode: one GI50 value per listed entry
1. COc1cc(-c2nnc3n2NC=C(C(=O)O)S3)cc(OC)c1OC
2. Cc1ccccc1C(C#N)/C(=N/NC(=O)C(=O)NN)C(=O)Nc1cccc(C(F)(F)F)c1 (centres undefined)
3. CC(=O)Nc1ccccc1-c1nc2ccccc2nc1C
4. O=C(N/N=C/c1ccccc1O)c1cccc([N+](=O)[O-])c1
5. COc1cc(C2[C@H]3C(=O)N(c4ccc(Cc5ccc(N6C(=O)[C@@H]7ON(c8ccccc8)C(c8cc(OC)c(OC)c(OC)c8)[C@@H]7C6=O)cc5)cc4)C(=O)[C@H]3ON2c2ccccc2)cc(OC)c1OC (some centres undefined)
6. Cc1ccc(NC(=O)CC(=O)n2nc(-c3ccccc3)c(/N=N\c3ccccc3[N+](=O)[O-])c2-c2ccccc2)cc1
7. COc1cc2ccc3c4cc(OC)c(OC(C)C)cc4c[n+](C)c3c2cc1OC
8. O=C(O)Cc1cc(=O)oc2cc(O)c(Cl)cc12

1: > 57.8 µM (inactive); 2: > 100 µM (inactive); 3: > 100 µM (inactive); 4: 45.7 µM (inactive); 5: > 100 µM (inactive); 6: 77.8 µM (inactive); 7: > 100 µM (inactive); 8: > 100 µM (inactive)

What is its GI50 for DLD-1? Entry: COc1cccc(-c2cc(=O)c3cc(C)c(C)c(C(=O)O)c3o2)c1
> 100 µM (inactive)
